assay: folding enthalpy; higher = less favourable; fluorescence melt of hairpins on a sequencing array, two-state fit; conditions: sodium 0.088 M
Classify as follows. Reported folding enthalpy greater than or equal to -30 kcal/mol: Met. Reported folding enthalpy below: Not met.

Decide: is the reported value of folding enthalpy for GGTGCAGGAAACTGTACC (((.(((....))).))) equal to or greater than -30 kcal/mol?
Not met

Decide: is the reported value of folding enthalpy for GATCTGACTCCAGATC ((((((....)))))) equal to or greater than -30 kcal/mol?
Not met

Decide: is the reported value of folding enthalpy for GATCCCAGAAGGGATC ((((((....)))))) equal to or greater than -30 kcal/mol?
Not met

Decide: is the reported value of folding enthalpy for GTCGACGAAAGTCGAGAC ((((((....)))..))) equal to or greater than -30 kcal/mol?
Met

Decide: is the reported value of folding enthalpy for GCGGCAGCGAAAGCTCGC (((..(((....)))))) equal to or greater than -30 kcal/mol?
Met

Decide: is the reported value of folding enthalpy for GGGTAACCGAAAGGTCCC (((..(((....)))))) equal to or greater than -30 kcal/mol?
Met

Decide: is the reported value of folding enthalpy for GGCACCGAAAGGTCGCC ((((((....))).))) equal to or greater than -30 kcal/mol?
Not met

Decide: is the reported value of folding enthalpy for GAATCTGGAAACAGATCC (.(((((....))))).) equal to or greater than -30 kcal/mol?
Met

Decide: is the reported value of folding enthalpy for GATCGACAATTCGATC ((((((....)))))) equal to or greater than -30 kcal/mol?
Not met

Decide: is the reported value of folding enthalpy for GGCAAACGAAAGTTGGCC (((.(((....))).))) equal to or greater than -30 kcal/mol?
Not met

###

assay: folding enthalpy; higher = less favourable; fluorescence melt of hairpins on a sequencing array, two-state fit; details: sodium 0.088 M
Classify as follows. Reported folding enthalpy greater than or equal to -30 kcal/mol: yes. Reported folding enthalpy below: no.

Decide: is the reported value of folding enthalpy for GATCGGTTCCCGATC ((((((...)))))) equal to or greater than -30 kcal/mol?
no

Decide: is the reported value of folding enthalpy for GCCAAACCGAAAGGTGGC (((..(((....)))))) equal to or greater than -30 kcal/mol?
no

Decide: is the reported value of folding enthalpy for GGGTCGGGAAACCGGCCC (((.(((....))).))) equal to or greater than -30 kcal/mol?
no

Decide: is the reported value of folding enthalpy for GTCCGCGAAAGCGCCGAC ((((((....)))..))) equal to or greater than -30 kcal/mol?
yes

Decide: is the reported value of folding enthalpy for GCTACCGAAAGGTCGAGC ((((((....)))..))) equal to or greater than -30 kcal/mol?
yes

Decide: is the reported value of folding enthalpy for GAATATGCGAAAGCATTC (((..(((....)))))) equal to or greater than -30 kcal/mol?
yes

Decide: is the reported value of folding enthalpy for GTATCCGAAAGGAGCTAC ((((((....)))..))) equal to or greater than -30 kcal/mol?
yes

Decide: is the reported value of folding enthalpy for GTATAGACGAAAGTCTAC (((..(((....)))))) equal to or greater than -30 kcal/mol?
yes

Decide: is the reported value of folding enthalpy for GGAGGCGGAAACGTCTCC ((((.((....)).)))) equal to or greater than -30 kcal/mol?
no

Decide: is the reported value of folding enthalpy for GCAGTTCGAAAGAATTGC (((.(((....))).))) equal to or greater than -30 kcal/mol?
no

Decide: is the reported value of folding enthalpy for GCTGCGCGAAAGCGTCGC ((..(((....)))..)) equal to or greater than -30 kcal/mol?
yes
